experiment: Pharmacokinetic study of tadalafil after oral administration to non-pretreated and ticagrelor-pretreated rats, non-compartment analysis; format: in vivo, Sprague-Dawley rats; details: Sprague-Dawley, rat, plasma, po, 2 mg/kg, Group T, ticagrelor-pretreated rats (10 mg/kg, 7 days); tadalafil 2 mg/kg oral; mean ± SD, n = 10
measured_attribute: AUC(0-inf) (ng·h/mL)

CN1CC(=O)N2[C@H](c3ccc4c(c3)OCO4)c3[nH]c4ccccc4c3C[C@@H]2C1=O ... 5100

###

test: Pharmacokinetic study of tadalafil after oral administration to non-pretreated and ticagrelor-pretreated rats, non-compartment analysis; format: in vivo, Sprague-Dawley rats; details: Sprague-Dawley, rat, plasma, po, 2 mg/kg, Group N, non-pretreated rats; tadalafil 2 mg/kg oral; mean ± SD, n = 10; read-out: AUC0–24
measured_attribute: AUC(0-t) (ng·h/mL)

CN1CC(=O)N2[C@H](c3ccc4c(c3)OCO4)c3[nH]c4ccccc4c3C[C@@H]2C1=O ... 3050

###

assay: One-compartment pharmacokinetic modeling of the plasma concentration-time profile of tadalafil; assay type: in vivo, Sprague-Dawley rats; settings: Sprague-Dawley, rat, plasma; one-compartment model; Group T, ticagrelor-pretreated rats; tadalafil 2 mg/kg oral; mean ± SD, n = 10; read-out: Ke (converted)
measured_attribute: k el

CN1CC(=O)N2[C@H](c3ccc4c(c3)OCO4)c3[nH]c4ccccc4c3C[C@@H]2C1=O ... 3.61e-05 s⁻¹

###

experiment: One-compartment pharmacokinetic modeling of the plasma concentration-time profile of tadalafil; type: in vivo, Sprague-Dawley rats; conditions: Sprague-Dawley, rat, plasma; one-compartment model; Group N, non-pretreated rats; tadalafil 2 mg/kg oral; mean ± SD, n = 10; read-out: Ke (converted)
measured_attribute: k el

CN1CC(=O)N2[C@H](c3ccc4c(c3)OCO4)c3[nH]c4ccccc4c3C[C@@H]2C1=O ... 4.72e-05 s⁻¹

###

test: Pharmacokinetic study of tadalafil after oral administration to non-pretreated and ticagrelor-pretreated rats, non-compartment analysis; format: in vivo, Sprague-Dawley rats; details: Sprague-Dawley, rat, plasma, po, 2 mg/kg, Group N, non-pretreated rats; tadalafil 2 mg/kg oral; mean ± SD, n = 10
measured_attribute: CL/F

CN1CC(=O)N2[C@H](c3ccc4c(c3)OCO4)c3[nH]c4ccccc4c3C[C@@H]2C1=O ... 11.3 mL/min/kg

###

assay: Pharmacokinetic study of tadalafil after oral administration to non-pretreated and ticagrelor-pretreated rats, non-compartment analysis; type: in vivo, Sprague-Dawley rats; conditions: Sprague-Dawley, rat, plasma, po, 2 mg/kg, Group T, ticagrelor-pretreated rats (10 mg/kg, 7 days); tadalafil 2 mg/kg oral; mean ± SD, n = 10
measured_attribute: Tmax (h)

CN1CC(=O)N2[C@H](c3ccc4c(c3)OCO4)c3[nH]c4ccccc4c3C[C@@H]2C1=O ... 3.22

###

experiment: Pharmacokinetic study of tadalafil after oral administration to non-pretreated and ticagrelor-pretreated rats, non-compartment analysis; type: in vivo, Sprague-Dawley rats; settings: Sprague-Dawley, rat, plasma, po, 2 mg/kg, Group N, non-pretreated rats (vehicle 7 days); tadalafil 2 mg/kg oral; mean ± SD, n = 10
measured_attribute: Cmax (ng/mL)

CN1CC(=O)N2[C@H](c3ccc4c(c3)OCO4)c3[nH]c4ccccc4c3C[C@@H]2C1=O ... 376

###

test: Pharmacokinetic study of tadalafil after oral administration to non-pretreated and ticagrelor-pretreated rats, non-compartment analysis; format: in vivo, Sprague-Dawley rats; conditions: Sprague-Dawley, rat, plasma, po, 2 mg/kg, Group N, non-pretreated rats; tadalafil 2 mg/kg oral; mean ± SD, n = 10
measured_attribute: AUC(0-inf) (ng·h/mL)

CN1CC(=O)N2[C@H](c3ccc4c(c3)OCO4)c3[nH]c4ccccc4c3C[C@@H]2C1=O ... 3070
